# Tgt: T1, human HIF-2α PAS-B (240-350), recombinant, His-tagged (human, UniProt Q99814 240-350, labelled with Monolith NT-647 dye for MST)
# T1 construct: range 240-350; Expressed in E. coli BL21(DE3)-Rosetta from pET28a; also called PAS-B domain of HIF-2α; not shown: His tag from pET28a vector (BamHI/SacI cloning)
# Assay: MST, peptide titrated against labelled HIF-2α PAS-B [top panel]
Recorded endpoint: pKd
# pKd = -log10(concentration in molar units)

Could you tell me which pKd is on file for CKLIIF (head-to-tail cyclic (cyclo-), also called CKLIIF; cyclic peptide #1) [cyclo-cys lys leu ile ile phe] ?
5.66
